glycan array binding signal (z-score) by entry:
# SYSTEM: Neu5Ac(a2-6)GalNAc(b1-4)GlcNAc6S
# TEST: glycan array binding signal (z-score within array); higher = stronger binding
# STUDY_CONDITIONS: glycan notation: IUPAC condensed, linker removed
The sample as a whole holds a higher share of the strongest signals than the screen did.
# print the numeric value only

Below, each entry is followed by its recorded glycan array binding signal (z-score) result.
BINDER	REPORTED_RESULT
LlpA1 (Pseudomonas fluorescens), Q4KHC3 (protein) MGSSHHHHHHSSGLVPRGSHMAWIRYDFTDNGSSVLPARYYMAPNQYLQSPNKRFKLLFQADGNLALYDGAQLAWVADQNTPFTNVSKGNKKDPMMVFMNYGFVLDDPLRGRIWSTTPSDPTMGSREDASLRAFTQVQDDGNIVTVDTIPHWYAPNGRVFTPAVGAAMIIGGTTELVPGQFYSAGEHSLVFQGDGNLVVYGPNSSVIWATYTQNKGGVRCVMQEDGNLVIYAANNGVVWQSGTGGHPGATIRLQANGSFTIVTERPVWARFGYTPTIKPPRVFYPDHKWKTGSYTWNNVF	-0.028
DCIR1 (Mus musculus), Q9QZ15 (protein) MASEITYAEVKFKNESNSLHTYSESPAAPREKPIRDLRKPGSPSLLLTSLMLLLLLLAITFLVAFIIYFQKYSQLLEEKKAAKNIMHNELNCTKSVSPMEDKVWSCCPKDWRLFGSHCYLVPTVSSSASWNKSEENCSRMGAHLVVIQSQEEQDFITGILDTHAAYFIGLWDTGHRQWQWVDQTPYEESITFWHNGEPSSGNEKCATIIYRWKTGWGWNDISCSLKQKSVCQMKKINL	-0.058
HPA (Helix pomatia), Q2F1K8 (protein) MQAFYSGLLLLCVVAFAAAQRVQSGKIDCGNDAGWAKVPSDDPGRDNTRELAKNITFASPYCRPPVVLLSITQLDVEQSQNLRVIARLYSVSPTGFKASCYTWHNTKVYSMSISWISIENY	-0.275

For reference, reported glycan array binding signal (z-score) for SP15308B-bot-339-22-339 (Bacteroides ovatus) (protein) NEWEDEQYEQYVSFKAPIASGSDGVTTIYVRYKDNGKVTYQLPIIVSGSTVNSQDRDIHIAVDKDTLKTLNIERFSLYRPELWYTEMEEDKYEFPETVHIPAGSCVELLNIDFNLQDIDMLEKWVLPLTIVDDGSYAYQSHPRKNYAKALLKVVPFNNYSGSYTASSMKVYTYINGKPDTNARTTDKRTGYVVDNNSIFFYAGLINEDMDKDMRKKYKINVHFKEDGTLDMKQDDPSNEMEFELIGTPTYSSTSVMDATRPYLERRYVQIMFEYDFQDFTYGGSGTEVIPIKYRVAGSMTLLRNINTQIPDEDQQIEW stands at -0.231
